# target_system: PKC delta kinase (Homo sapiens)
# Sequence (Q05655 whole entry): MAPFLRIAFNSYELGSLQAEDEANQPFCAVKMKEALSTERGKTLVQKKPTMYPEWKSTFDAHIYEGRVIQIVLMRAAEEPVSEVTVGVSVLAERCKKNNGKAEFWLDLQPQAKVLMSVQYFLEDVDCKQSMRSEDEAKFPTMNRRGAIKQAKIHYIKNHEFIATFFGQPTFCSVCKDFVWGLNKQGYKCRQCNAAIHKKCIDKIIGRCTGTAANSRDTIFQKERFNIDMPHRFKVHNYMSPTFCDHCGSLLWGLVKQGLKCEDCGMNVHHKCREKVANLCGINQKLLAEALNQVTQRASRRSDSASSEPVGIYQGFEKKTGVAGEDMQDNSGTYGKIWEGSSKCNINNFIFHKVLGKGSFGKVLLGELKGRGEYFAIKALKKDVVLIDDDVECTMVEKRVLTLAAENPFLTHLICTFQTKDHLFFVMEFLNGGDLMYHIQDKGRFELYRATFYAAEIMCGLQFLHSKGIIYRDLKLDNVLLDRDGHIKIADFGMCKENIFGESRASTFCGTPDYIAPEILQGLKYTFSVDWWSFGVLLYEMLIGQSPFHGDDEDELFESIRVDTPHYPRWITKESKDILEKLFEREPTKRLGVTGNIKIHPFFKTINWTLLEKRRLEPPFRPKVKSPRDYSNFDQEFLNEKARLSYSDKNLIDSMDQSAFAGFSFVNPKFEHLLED
# experimental_protocol: PKC delta kinase inhibition, coupled-enzyme (NADH absorbance) assay, Ki
# Format: biochemical
# particulars: 150 μM ATP, 46 nM PKC delta kinase, 30° C.; read-out: Ki PKC delta
pKi: −log10 of the molar value.
Below, each entry is listed alongside its reported pKi.

// below: answered compounds
[
  {
    "compound": "Fc1ccc(N2CCNC(C3CC3)C2)nc1-c1n[nH]c2ncccc12 (stereo not drawn)",
    "pKi": "> 6.30"
  },
  {
    "compound": "CC(C)CC1CCCN(c2ccc(C(F)(F)F)c(-c3n[nH]c4ncccc34)n2)C1 (stereo not drawn)",
    "pKi": "< 5.90"
  },
  {
    "compound": "NC1CCCN(c2ccc(C(F)(F)F)c(-c3n[nH]c4ncccc34)n2)C1 (stereo not drawn)",
    "pKi": "< 5.90"
  },
  {
    "compound": "N#CCCC1CN(c2ccc(F)c(-c3n[nH]c4ncccc34)n2)CCC1O (stereo not drawn)",
    "pKi": "< 5.90"
  },
  {
    "compound": "OC1(C2CN(c3cccc(-c4n[nH]c5ncccc45)n3)CCN2)CC1 (stereo not drawn)",
    "pKi": "> 7.30"
  }
]

Query compound follows.
# returns recorded pKi (system: PKC delta kinase (Homo sapiens)) for CNC1CCN(c2cccc(-c3n[nH]c4ncccc34)n2)C1 (stereo not drawn)
< 5.70
